Documented IC50 across a set of molecules
biological target: Cbl-b (Homo sapiens, UniProt Q13191); assay: Cbl-b activity assay (Cbl-b inhibition assay), TR-FRET of Cbl-b interaction with UbcH5B-Ub; type: biochemical; conditions: assay buffer with 100 mM NaCl, 60 nM Src kinase; read-out: Cbl-b activity IC50
Sequence (Q13191 36-427): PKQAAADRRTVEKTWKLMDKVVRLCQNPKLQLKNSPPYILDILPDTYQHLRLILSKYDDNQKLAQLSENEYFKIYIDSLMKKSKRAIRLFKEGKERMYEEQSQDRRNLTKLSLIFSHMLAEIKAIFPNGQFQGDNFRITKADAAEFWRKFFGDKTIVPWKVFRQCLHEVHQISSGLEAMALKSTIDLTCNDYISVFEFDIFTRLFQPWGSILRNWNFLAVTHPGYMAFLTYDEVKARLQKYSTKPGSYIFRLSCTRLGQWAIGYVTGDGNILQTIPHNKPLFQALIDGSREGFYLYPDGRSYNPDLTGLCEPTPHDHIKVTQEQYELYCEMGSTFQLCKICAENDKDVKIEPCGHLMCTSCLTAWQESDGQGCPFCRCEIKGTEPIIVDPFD

// worked examples, IC50 included
Cc1cc(C(=O)Nc2cccc([C@H](C)Cc3nocc3C)c2)nc(C2CC2)n1 :: < 100 nM
Cn1cnnc1CC1(c2cccc(N3Cc4c(cc(C(O)C(F)(F)F)cc4C(F)(F)F)C3=O)c2)COC1 (stereo not shown) :: < 100 nM
Cn1cnnc1CC1(c2cccc(N3Cc4c(cc(CN5CC(F)C5)cc4C(F)(F)F)C3=O)c2)COC1 :: < 100 nM

Field: next molecule
**Query** Any idea what its IC50 is? The molecule is CC(c1cccc(NC(=O)c2ccc(CO)c(C3CC3)n2)c1)C(F)(F)c1nncn1C (stereo not shown)
**Result** 100 to 300 nM

###

What follows is a record of Kd for Cbl-b (residues 36-427) (Homo sapiens).

// worked examples, Kd included
C[C@H](Sc1nncn1C)c1ccnc(NC(=O)c2cc3c(cn2)CCCC3)c1 :: 3 to 10 µM
C[C@H](Sc1nncn1C)c1cccc(NC(=O)c2cc(NS(=O)(=O)CCO)ccn2)c1 :: > 10 µM

**Query** Any idea what its Kd is? The compound is "C[C@H](Cc1nncn1C)c1cccc(NC(=O)c2cc(C(=O)NCC(C)(C)O)ccn2)c1"
**Result** 3 to 10 µM

**Query** Again, but for "C[C@H](Sc1nncn1C)c1cccc(NC(=O)c2cc(C(=O)N3CC[C@H](N(C)C)C3)ccn2)c1"
**Result** 3 to 10 µM

**Query** Again, but for C[C@H](Cc1nncn1C)c1cccc(N2Cc3c(cc(CN4CC(O)C(F)(F)C4)cc3C(F)(F)F)C2=O)c1 (some centres unmarked)
**Result** < 0.1 µM

###

tested on: T-cell; experiment: CD25 cell surface staining on T-cells co-stimulated with anti-CD3 and anti-CD28 antibody (Biological Example 2); format: cell-based, human; conditions: Homo sapiens, T-cell, 0.3 μM Cbl-b inhibitor; fold change over baseline (anti-CD3/anti-CD28 stimulated T-cells without inhibitor); read-out: CD25 staining Anti-CD3/Anti-CD28 stimulation
observed.property: fold induction at 0.3 µM

// worked examples, fold induction at 0.3 µM included
Cn1cnnc1[C@@H](F)C1(c2cccc(N3Cc4c(cc(CN5CCCC5)cc4C(F)(F)F)C3=O)c2)COC1 [Example 673a] :: > 1.76
Cn1cnnc1CC1(c2cccc(N3Cc4c(cc(C5CN6CCC5CC6)cc4C(F)(F)F)C3=O)c2)COC1 (stereo not drawn) :: 1.01 to 1.3
CCOc1cc(NC(=O)c2cc(C)nc(C3CC3)n2)cc(C2(Cc3nncn3C)COC2)c1 :: 1.01 to 1.3

**Query** Any idea what its fold induction at 0.3 µM is? The molecule is "Cn1cnnc1[C@@H](F)C1(c2cccc(N3Cc4c(cc(CN5CCC6(CC6)C5)cc4C(F)(F)F)C3=O)c2)COC1"
**Result** 1.01 to 1.3

**Query** Again, but for "C[C@H](Cc1nncn1C)c1cc(-c2cncs2)nc(N2Cc3c(cccc3C(F)(F)F)C2=O)c1"
**Result** 1.01 to 1.3

**Query** Again, but for "Cn1cnnc1CC1(c2cccc(N3Cc4c(cc(CN5Cc6ccc(F)cc6C5)cc4C(F)(F)F)C3=O)c2)COC1"
**Result** 1.31 to 1.5
